Entries annotated with measured IC50
Test system: K562 (chronic myelogenous leukemia; leukemia cell line +ve for Bcr-Abl)
METHOD NOTES: Cancer cell assay, tumor cells K562
Format: cell-based
CONDITION CONTEXT: Homo sapiens, compound in DMSO 0.01 μM to 100 μM, examined 96 hours later, viable cells by trypan blue exclusion

| STRUCTURE SMILES STRING | IC50 |
| --- | --- |
| COc1ccc(CCNC(=O)c2ccc(OC)c(N)c2)cc1 | 75 µM |
| COc1cc(CS(=O)(=O)CCc2ccc(OC)c(OC)c2)ccc1O | > 10 µM |
| COc1ccc(S(=O)(=O)NCCc2c(OC)cc(OC)cc2OC)cc1 | > 10 µM |
